Source of measurements: patent US11407767B2

biological target: CDK12/CycK (Homo sapiens, UniProt Q9NYV4); assay: Inhibition of CDK12 (ADP-Glo kinase assay); conditions: 60 nM CDK12/CycK, 30 minutes pre-incubation, 1 μM ATP, 0.5 μM RBER-IRStide substrate, 1 h at 25° C., read-out: CDK12/cyclin K IC50
Sequence (Q9NYV4 whole entry): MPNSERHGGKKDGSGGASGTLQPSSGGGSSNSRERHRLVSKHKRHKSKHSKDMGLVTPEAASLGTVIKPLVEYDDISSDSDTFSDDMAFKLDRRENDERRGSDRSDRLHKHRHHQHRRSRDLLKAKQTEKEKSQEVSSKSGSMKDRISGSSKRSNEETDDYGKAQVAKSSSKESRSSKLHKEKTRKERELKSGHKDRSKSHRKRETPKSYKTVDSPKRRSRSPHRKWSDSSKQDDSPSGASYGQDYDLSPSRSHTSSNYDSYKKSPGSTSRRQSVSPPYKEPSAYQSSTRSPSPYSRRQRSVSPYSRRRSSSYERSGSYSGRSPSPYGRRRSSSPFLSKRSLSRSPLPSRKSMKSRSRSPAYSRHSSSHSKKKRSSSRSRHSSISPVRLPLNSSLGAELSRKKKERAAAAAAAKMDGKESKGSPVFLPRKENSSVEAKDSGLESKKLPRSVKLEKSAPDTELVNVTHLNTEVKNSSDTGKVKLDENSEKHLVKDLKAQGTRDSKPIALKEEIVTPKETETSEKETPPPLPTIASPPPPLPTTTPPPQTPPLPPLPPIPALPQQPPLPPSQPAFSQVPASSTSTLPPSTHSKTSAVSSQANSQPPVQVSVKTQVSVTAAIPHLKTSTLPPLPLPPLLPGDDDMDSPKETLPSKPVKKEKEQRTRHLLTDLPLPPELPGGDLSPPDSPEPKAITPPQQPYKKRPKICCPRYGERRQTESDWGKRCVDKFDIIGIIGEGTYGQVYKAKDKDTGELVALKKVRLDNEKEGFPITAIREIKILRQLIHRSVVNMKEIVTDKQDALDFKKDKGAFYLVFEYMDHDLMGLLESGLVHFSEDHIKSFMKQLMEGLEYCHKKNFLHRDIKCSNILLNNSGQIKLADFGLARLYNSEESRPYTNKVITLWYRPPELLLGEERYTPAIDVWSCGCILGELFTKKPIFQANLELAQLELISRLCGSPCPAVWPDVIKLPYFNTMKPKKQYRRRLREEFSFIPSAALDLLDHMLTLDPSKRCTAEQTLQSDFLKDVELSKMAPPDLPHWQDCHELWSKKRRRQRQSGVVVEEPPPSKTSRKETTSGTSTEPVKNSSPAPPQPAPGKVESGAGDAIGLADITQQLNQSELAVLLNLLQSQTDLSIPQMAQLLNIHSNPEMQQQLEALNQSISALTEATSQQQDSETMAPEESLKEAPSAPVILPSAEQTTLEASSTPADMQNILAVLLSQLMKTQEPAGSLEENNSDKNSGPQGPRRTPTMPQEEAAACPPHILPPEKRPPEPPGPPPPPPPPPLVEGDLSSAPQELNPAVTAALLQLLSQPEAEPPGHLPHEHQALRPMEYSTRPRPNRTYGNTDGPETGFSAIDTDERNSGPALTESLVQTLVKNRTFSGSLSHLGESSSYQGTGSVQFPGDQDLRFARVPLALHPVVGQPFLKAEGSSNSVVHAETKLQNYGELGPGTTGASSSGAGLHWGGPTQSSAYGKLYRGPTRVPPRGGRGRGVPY
Sequence (O75909 whole entry partner): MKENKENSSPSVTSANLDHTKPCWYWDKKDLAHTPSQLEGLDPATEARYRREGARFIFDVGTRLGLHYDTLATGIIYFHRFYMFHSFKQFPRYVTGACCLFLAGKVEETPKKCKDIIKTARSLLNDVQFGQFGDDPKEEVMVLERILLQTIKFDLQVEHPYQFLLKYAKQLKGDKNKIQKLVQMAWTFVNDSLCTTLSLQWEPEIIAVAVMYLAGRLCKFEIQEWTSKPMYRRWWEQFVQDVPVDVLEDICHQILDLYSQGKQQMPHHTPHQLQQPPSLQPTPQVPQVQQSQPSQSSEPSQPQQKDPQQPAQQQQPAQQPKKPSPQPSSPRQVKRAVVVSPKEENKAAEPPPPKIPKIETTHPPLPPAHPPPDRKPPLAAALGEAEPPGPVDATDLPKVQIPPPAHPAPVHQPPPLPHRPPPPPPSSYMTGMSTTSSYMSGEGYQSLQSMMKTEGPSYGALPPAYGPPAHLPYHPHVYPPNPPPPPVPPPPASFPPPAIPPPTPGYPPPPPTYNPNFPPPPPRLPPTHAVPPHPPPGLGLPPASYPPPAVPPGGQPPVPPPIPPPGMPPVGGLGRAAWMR
pIC50: −log10 of the molar value. Where a name gives a salt, the structure may show the parent alone.
experimentalEndpoint: pIC50

Worked examples, 6 molecules total:
> print(dat)
                                   molecule  experimentalendpoint    testresult
1  C=CC(=O)Nc1cccc(C(=O)NCCc2cc3c(-c4cnn5ncccc45)ccnc3[nH]2)c1                 pIC50        > 7.00
2  C=CC(=O)N1CCC[C@H]1C(=O)N(CC)CCc1cc2c(-c3cnn4ncccc34)ccnc2[nH]1                 pIC50  4.52 to 6.00
3                CCn1nccc1-c1ccnc2[nH]ccc12                 pIC50  4.52 to 6.00
4  CN(C)C/C=C/C(=O)Nc1cccc(C(=O)N2CCC(c3cc4c(-c5cnn6ncccc56)ccnc4[nH]3)C2)c1 (centres unmarked)                 pIC50        > 7.00
5  c1cnn2ncc(-c3ccnc4[nH]c([C@H]5CCNC5)cc34)c2c1 (single isomer, unassigned)                 pIC50  6.00 to 7.00
6  C=CC(=O)Nc1ccc(C(=O)N2CCC(c3cc4c(-c5cnn6ncccc56)ccnc4[nH]3)C2)cc1 (centres unmarked)                 pIC50        > 7.00

What does the record list as pIC50 for COCCC(=O)Nc1ccccc1C(=O)N1CCC(c2cc3c(-c4cnn5ncccc45)ccnc3[nH]2)C1 (centres unmarked) [Example 163, Formate Salt] ?
> 7.00

What does the record list as pIC50 for "C=CC(=O)N1CCC[C@@H]1C(=O)NCCc1cc2c(-c3ccnn3C)ccnc2[nH]1" ?
4.52 to 6.00
